Assayed System: recombinant human TFPI (tissue factor pathway inhibitor) (human, UniProt P10646 29-304)
Assay Overview: cell-based or functional assay
Readout Name: effect of inhibiting TFPI, FXa activity assay, Ab 10 nM

Binder	Data Value
clone 1214 (antibody, V domains shown) VH: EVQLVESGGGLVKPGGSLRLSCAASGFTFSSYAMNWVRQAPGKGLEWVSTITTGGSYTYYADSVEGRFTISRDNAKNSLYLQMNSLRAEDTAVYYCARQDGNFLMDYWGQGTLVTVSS VL: DVVMTQTPLSLPVTLGQPASISCKSSQSLLDVDGKTYLNWLQQRPGQSPKRLIYLVSKLDSGVPDRFTGSGSGTDFTLKISRVEAEDVGVYYCWQGTHFPFTFGQGTKVEIKR	~63%
clone 13 (antibody, V domains shown) VH: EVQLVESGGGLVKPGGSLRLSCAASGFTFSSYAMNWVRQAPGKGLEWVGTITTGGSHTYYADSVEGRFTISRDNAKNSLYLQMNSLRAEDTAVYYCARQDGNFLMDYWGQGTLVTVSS VL: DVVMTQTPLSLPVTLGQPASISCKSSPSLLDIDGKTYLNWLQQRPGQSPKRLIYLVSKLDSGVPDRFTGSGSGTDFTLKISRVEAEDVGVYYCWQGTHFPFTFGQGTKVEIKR	~76%
